Data credit: patent US12258327B2

biological target: EGFR del19/T790M/C797S (Homo sapiens, UniProt P00533, C797S/DEL746-750/T790M); assay: Biochemical EGFR kinase assay (Lance Ultra TR-FRET), triple mutant del19/T790M/C797S; settings: IC50 del19/T790M/C797S, 100 μM ATP
Sequence (P00533 with tags, fused parts or gaps DEL746-750/T790M/C797S): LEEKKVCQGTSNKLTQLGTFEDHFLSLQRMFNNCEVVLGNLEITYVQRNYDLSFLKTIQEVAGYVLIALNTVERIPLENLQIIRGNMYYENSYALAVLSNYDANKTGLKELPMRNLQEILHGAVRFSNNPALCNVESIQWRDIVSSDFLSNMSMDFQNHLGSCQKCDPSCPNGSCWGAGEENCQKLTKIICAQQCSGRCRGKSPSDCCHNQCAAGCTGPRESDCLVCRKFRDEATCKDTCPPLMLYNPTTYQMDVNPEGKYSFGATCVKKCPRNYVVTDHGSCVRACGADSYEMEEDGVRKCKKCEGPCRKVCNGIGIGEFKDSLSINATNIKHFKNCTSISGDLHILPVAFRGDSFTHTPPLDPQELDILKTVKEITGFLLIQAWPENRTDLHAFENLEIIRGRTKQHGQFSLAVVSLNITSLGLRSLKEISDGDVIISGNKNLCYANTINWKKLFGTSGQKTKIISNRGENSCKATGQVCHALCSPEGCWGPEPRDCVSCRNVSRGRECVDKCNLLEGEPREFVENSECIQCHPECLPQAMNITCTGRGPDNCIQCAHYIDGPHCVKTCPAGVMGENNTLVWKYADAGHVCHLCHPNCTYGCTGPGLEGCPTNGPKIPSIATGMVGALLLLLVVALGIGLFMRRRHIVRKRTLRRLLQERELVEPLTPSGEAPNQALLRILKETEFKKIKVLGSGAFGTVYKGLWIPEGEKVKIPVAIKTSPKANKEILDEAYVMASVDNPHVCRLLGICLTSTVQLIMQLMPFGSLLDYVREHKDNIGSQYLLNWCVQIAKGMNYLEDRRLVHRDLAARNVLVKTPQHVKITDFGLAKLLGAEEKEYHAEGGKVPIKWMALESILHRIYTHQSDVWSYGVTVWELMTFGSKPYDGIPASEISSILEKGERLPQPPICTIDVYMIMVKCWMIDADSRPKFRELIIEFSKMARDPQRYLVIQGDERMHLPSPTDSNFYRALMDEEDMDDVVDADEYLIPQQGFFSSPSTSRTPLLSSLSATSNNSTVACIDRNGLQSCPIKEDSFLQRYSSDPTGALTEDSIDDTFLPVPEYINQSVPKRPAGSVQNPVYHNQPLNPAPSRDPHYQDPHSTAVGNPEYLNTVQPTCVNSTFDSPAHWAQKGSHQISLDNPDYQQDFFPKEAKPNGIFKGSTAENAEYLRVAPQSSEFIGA
pIC50: −log10 of the molar value.

- compound: "CC1(O)CCC(Nc2cc(Nc3ccnc(N4CC(CO)C(C)(C)C4)n3)ncc2-c2ccn(C(F)F)n2)CC1 (stereo not drawn)"
  pIC50: 8.51
- compound: "Cn1nc(-c2cnc(Nc3ccnc(N4CCC(O)C(F)(F)C4)n3)cc2NC2CCC(C)(O)CC2)cc1C(F)(F)F (stereo not drawn)"
  pIC50: 9.05
- compound: "C[C@]1(O)CC[C@@H](Nc2cc(Nc3ccnc(-c4cnn(S(=O)(=O)C5CC5)c4)c3)ncc2-c2ccn(C(F)F)n2)CC1"
  pIC50: 8.70
- compound: "C[C@]1(CO)C[C@@H](Nc2cc(Nc3ccnc(-c4cnn(S(=O)(=O)C5CC5)c4)n3)ncc2-c2ccn(C(F)F)n2)C1"
  pIC50: 8.77
- compound: "CC1(O)CCC(Nc2cc(Nc3ccnc(N4CCC(O)C(F)(F)C4)n3)ncc2-c2ccn(C(F)F)n2)CC1 (stereo not drawn)"
  pIC50: 8.46
- compound: "O=S(=O)(C1CC1)n1cc(-c2nccc(Nc3cc(N[C@H]4C[C@@H](CO)C4)c(-c4ccn(C(F)F)n4)cn3)n2)cn1"
  pIC50: 9.40
- compound: "C[C@]1(O)CC[C@@H](Nc2cc(Nc3ccnc(-c4cnn(S(=O)(=O)C5CC5)c4)n3)ncc2-n2cccn2)CC1"
  pIC50: 9.40
- compound: "CC1(O)CCC(Nc2cc(Nc3ccnc(N4CC(CO)C(F)(F)C4)n3)ncc2-c2ccn(C(F)F)n2)CC1 (stereo not drawn)"
  pIC50: 8.20
- compound: "CC1(O)CCC(Nc2cc(Nc3ccnc(N4CC(O)C(F)(F)C4)n3)ncc2-c2ccn(C(F)F)n2)CC1 (stereo not drawn)"
  pIC50: 9.00
